target: His-tagged BACE1 protein (Example 15) (Homo sapiens (Human), UniProt P56817 22-457); experiment: SPR (Biacore T200), Fab on captured His-BACE1;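 also: Single-cycle kinetics with serially diluted Fab flowed over BACE1 captured by anti-His antibody on a CM5 chip, rates fitted to a one-to-one Langmuir model, Kd derived as koff over kon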
Sequence (P56817 22-457 limits assumed): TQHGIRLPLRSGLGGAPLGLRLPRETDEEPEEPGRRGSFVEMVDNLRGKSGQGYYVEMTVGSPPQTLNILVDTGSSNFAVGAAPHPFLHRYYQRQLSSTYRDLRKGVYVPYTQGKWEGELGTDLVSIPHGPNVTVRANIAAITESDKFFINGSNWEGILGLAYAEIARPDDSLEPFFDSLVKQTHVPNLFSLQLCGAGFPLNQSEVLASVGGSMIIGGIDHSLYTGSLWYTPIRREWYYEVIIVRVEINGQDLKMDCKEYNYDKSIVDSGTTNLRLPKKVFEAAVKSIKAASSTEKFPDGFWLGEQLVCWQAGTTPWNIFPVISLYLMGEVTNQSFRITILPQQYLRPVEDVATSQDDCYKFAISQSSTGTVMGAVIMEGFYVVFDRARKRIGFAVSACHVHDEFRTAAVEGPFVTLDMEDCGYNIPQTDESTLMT
Readout kind: pKd
Schema: pKd number; meaning minus log10 of the concentration expressed in molar units.

So, 6266.3 Fab (Fab, V domains shown) VH: QVQLVQSGAEVKKPGSSVKVSCKASGGTLSHYGVSWVRQAPGQGLEWMGNIIPGIGTANYAQKFQGRVTITADESTSTAYMELSSLRSEDTAVYYCARSGGTKYGMLDVWGQGTMVTVSS VL: EIVMTQSPATLSVSPGERATLSCRASQSVSSNLAWYQQKPGQAPRLLIYGASTRAYGIPARFSGSGSGTEFTLTISSLQSEDFAVYYCQQLILWPPRTFGGGTKVEIK ? Its pKd was 9.54

// 6266.5 Fab (Fab, V domains shown) VH: QVQLVQSGAEVKKPGSSVKVSCKASGGTLSHYGVSWVRQAPGQGLEWMGNIIPGIGTANYAQKFQGRVTITADESTSTAYMELSSLRSEDTAVYYCARSGGTQYGMLDVWGQGTMVTVSS VL: EIVMTQSPATLSVSPGERATLSCRASQSVSSNLAWYQQKPGQAPRLLIYGASKRATGIPARFSGSGSGTEFTLTISSLQSEDAAVYYCQQLILWPPRTFGGGTKVEIK : pKd value = 9.28

6266.11 Fab (Fab, V domains shown) VH: QVQLVQSGAEVKKPGSSVKVSCKASGGTLSGYGVSWVRQAPGQGLEWMGNIIPGFGTANYAQKFQGRVTITADESTSTAYMELSSLRSEDTAVYYCARSGGTKYGMLDVWGQGTMVTVSS VL: EIVMTQSPATLSVSPGERATLSCRASQSVSSNLAWYQQKPGQAPRLLIYGASTRAYGIPARFSGSGSGTEFTLTISSLQSEDFAVYYCQQLILWPPRTFGGGTKVEIK yielded pKd of 9.34

Form: binder = 6266.15 Fab (Fab, V domains shown) VH: QVQLVQSGAEVKKPGSSVKVSCKASGGTLSGYGVSWVRQAPGQGLEWMGNIIPGFGTANYAQKFQGRVTITADESTSTAYMELSSLRSEDTAVYYCARSGGTKYGELDVWGQGTMVTVSS VL: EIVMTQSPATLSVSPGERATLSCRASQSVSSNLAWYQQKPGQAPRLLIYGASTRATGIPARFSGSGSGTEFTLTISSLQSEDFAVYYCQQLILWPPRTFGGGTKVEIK ; pKd = 9.19

Each recorded value in this set is attributed to patent US20180057604A1.
